target: Large T antigen (Simian virus 40); assay: SV40 large T antigen inhibitors, biochemical (AID 1903); details: SV40 large T antigen ATPase/helicase inhibition assay; at 20 µM; stronger effect = higher value
The whole screen tested about 310,000 compounds, of which about 1,200 (0.39%) were called active. Only a sample is shown. Results with a measured potency or affinity are listed apart.
Binning of inhibition into classes: lower segment: < 10%; middle segment: ≥ 10% and < 30%; upper segment: ≥ 30%

GET /class?item= O=C(O)c1ccc(NCc2cccs2)cc1
lower segment

GET /class?item= CC(=O)COc1ccc2c(c1C)O/C(=C\c1ccco1)C2=O
upper segment

GET /class?item= COc1cc(/C=C2\SC(=S)N(NC(=O)c3ccncc3)C2=O)ccc1O
upper segment

GET /class?item= COc1cccc(C(=O)CN(C(=O)c2ccc(Cl)c(Cl)c2)N2C(=O)C3CCCCC3C2=O)c1 (centres undefined)
middle segment

GET /class?item= Oc1ccccc1C1=Nc2ccccc2N=C(c2cccs2)C1
middle segment

----------
molecular target: Large T antigen (Simian virus 40) (UniProt P03070); experiment: SV40 large T antigen inhibitors, biochemical (AID 1903); conditions: SV40 large T antigen ATPase/helicase inhibition assay; at 20 µM; stronger effect = higher value
Sequence (P03070 whole entry, looked up): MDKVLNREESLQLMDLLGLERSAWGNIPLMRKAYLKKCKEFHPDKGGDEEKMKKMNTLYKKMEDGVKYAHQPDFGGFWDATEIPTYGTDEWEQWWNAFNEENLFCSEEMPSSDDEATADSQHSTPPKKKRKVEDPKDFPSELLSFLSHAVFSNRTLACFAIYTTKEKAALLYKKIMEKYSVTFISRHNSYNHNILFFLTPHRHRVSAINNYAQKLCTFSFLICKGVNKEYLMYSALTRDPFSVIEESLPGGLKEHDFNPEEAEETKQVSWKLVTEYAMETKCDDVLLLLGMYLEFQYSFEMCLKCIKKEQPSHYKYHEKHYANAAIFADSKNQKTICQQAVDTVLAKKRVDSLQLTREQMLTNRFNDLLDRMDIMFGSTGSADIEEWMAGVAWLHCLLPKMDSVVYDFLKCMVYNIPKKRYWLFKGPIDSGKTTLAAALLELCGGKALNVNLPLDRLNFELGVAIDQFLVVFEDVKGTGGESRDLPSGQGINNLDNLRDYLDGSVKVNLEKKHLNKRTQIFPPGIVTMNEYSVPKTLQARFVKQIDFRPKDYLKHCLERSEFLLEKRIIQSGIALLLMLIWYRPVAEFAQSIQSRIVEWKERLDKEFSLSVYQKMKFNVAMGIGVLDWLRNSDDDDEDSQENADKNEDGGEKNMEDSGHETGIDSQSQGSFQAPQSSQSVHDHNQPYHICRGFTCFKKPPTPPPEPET
In all, about 310,000 compounds went through this assay and about 1,200 (0.39%) were called active. Only a sample is shown. Results with a measured potency or affinity are listed apart.
MEASUREMENT KIND: inhibition (%)
# output: bare number, implied unit %

Check out these entries, answers already filled in.
>  <COMPOUND>
CCCC(=O)N(c1ccc2oc(=O)sc2c1)S(=O)(=O)c1ccccc1

>  <MEASUREMENT KIND>
inhibition

>  <EXPERIMENTAL VALUE>
22.9

$$$$
>  <COMPOUND>
CCc1nc(SCC(=O)Nc2ccc(N(C)C)cc2)c2ccccc2n1

>  <MEASUREMENT KIND>
inhibition

>  <EXPERIMENTAL VALUE>
18.1

$$$$
>  <COMPOUND>
COc1cc2c(cc1OC)C(Cc1ccc(O)cc1)NCC2 (centres undefined)

>  <MEASUREMENT KIND>
inhibition

>  <EXPERIMENTAL VALUE>
70.4

$$$$

Turning now to a further compound:
What value of inhibition has been recorded for this entry: Cc1cc(C)n2c(SCC(=O)Nc3ccc(F)cc3)nnc2n1
8.2

----------
target: Large T antigen (Simian virus 40) (UniProt P03070); test: SV40 large T antigen inhibitors, biochemical (AID 1903); conditions: SV40 large T antigen ATPase/helicase inhibition assay; at 20 µM; stronger effect = higher value
The campaign covered roughly 310,000 compounds. About 1,200 (0.39%) were called active. Not all results are given here. Measured potencies and affinities stand elsewhere.
Below, each of the compounds is paired with its reported inhibition value.
# output: bare number, implied unit %

Check out these entries, answers already filled in.
>  <COMPOUND>
COC(=O)c1ccc2c(=O)n(-c3ccc(OC)cc3)c(=S)[nH]c2c1

>  <EXPERIMENTAL VALUE>
6.42

$$$$
>  <COMPOUND>
O=C(Nc1ccccc1)C1CCN(S(=O)(=O)c2ccc3c(c2)OCCO3)CC1

>  <EXPERIMENTAL VALUE>
20.4

$$$$
>  <COMPOUND>
CCOC(=O)C1C(c2ccccc2)C(C(=O)OCC)S(=O)(=O)C(CCN(CC)CC)S1(=O)=O (stereo not drawn)

>  <EXPERIMENTAL VALUE>
4.87

$$$$
>  <COMPOUND>
O=C(COC(=O)CCC1CCCC1)NCc1ccc(Cl)cc1

>  <EXPERIMENTAL VALUE>
17.3

$$$$
>  <COMPOUND>
CCOc1ccc(CN(C)CC(=O)Nc2ccc(N3CCOCC3)cc2)cc1OC

>  <EXPERIMENTAL VALUE>
6.36

$$$$
>  <COMPOUND>
CC1CCC(NC(=O)CNC(=O)Cc2cccc3ccccc23)CC1 (stereo not drawn)

>  <EXPERIMENTAL VALUE>
-1.39

$$$$
>  <COMPOUND>
CN(C)C(=O)c1cn(-c2ccccc2)nc1-c1cc2ccccc2o1

>  <EXPERIMENTAL VALUE>
0.09

$$$$
>  <COMPOUND>
CCCCC/C(=N\NC(=O)CCC(=O)NCc1ccccc1)c1ccccc1

>  <EXPERIMENTAL VALUE>
-0.61

$$$$

What value of inhibition has been recorded for this entry: Cc1cc(C)c(C)c(OCCOCCNCc2ccccc2)c1
-32.9

What value of inhibition has been recorded for this entry: CC(C)OC(=O)NC(Nc1ccccc1C(=O)O)(C(F)(F)F)C(F)(F)F
6.18

What value of inhibition has been recorded for this entry: O=C(OCc1nnc(-c2ccccc2)o1)c1ccc(CO)cc1
3.3

----------
molecular target: Large T antigen (Simian virus 40) (UniProt P03070); assay: SV40 large T antigen inhibitors, biochemical (AID 1903); settings: SV40 large T antigen ATPase/helicase inhibition assay; at 20 µM; stronger effect = higher value
Among all 310,000 compounds or so, about 1,200 (0.39%) were called active. These entries were drawn from the full list. Results with a measured potency or affinity are listed apart.
Below, each of the compounds is paired with its reported inhibition value.
# output: bare number, implied unit %

Check out these entries, answers already filled in.
>  <COMPOUND>
CCN1CCCC1CNC(=O)c1ccccc1Cl (stereo not given)

>  <MEASUREMENT UNIT>
%

>  <EXPERIMENTAL VALUE>
-13.2

$$$$
>  <COMPOUND>
CCOC(=O)C1=C(C)N(c2ccc(C)cc2)C(=O)/C1=C\c1ccc(O)c(OC)c1

>  <MEASUREMENT UNIT>
%

>  <EXPERIMENTAL VALUE>
33.5

$$$$
>  <COMPOUND>
O=C1CC2(CCN(C(=O)c3cccc([N+](=O)[O-])c3)CC2)Oc2ccccc21

>  <MEASUREMENT UNIT>
%

>  <EXPERIMENTAL VALUE>
22.7

$$$$
>  <COMPOUND>
Oc1ccc(-c2nc3ccccc3s2)c(O)c1

>  <MEASUREMENT UNIT>
%

>  <EXPERIMENTAL VALUE>
21

$$$$
>  <COMPOUND>
Cn1c(/C(C#N)=C/c2ccc(O)cc2)nc2ccccc21

>  <MEASUREMENT UNIT>
%

>  <EXPERIMENTAL VALUE>
9.77

$$$$
>  <COMPOUND>
NS(=O)(=O)c1ccc(N=Nc2ccc(O)c3ncccc23)cc1

>  <MEASUREMENT UNIT>
%

>  <EXPERIMENTAL VALUE>
13.3

$$$$

What value of inhibition has been recorded for this entry: O=C(O[C@@H]1Cc2c(O)cc(O)cc2O[C@@H]1c1cc(O)c(O)c(O)c1)c1cc(O)c(O)c(O)c1
-0.22

What value of inhibition has been recorded for this entry: COC(=O)C1=C(C)NC(=O)NC1c1ccco1 (stereo not given)
8.25

----------
molecular target: Large T antigen (Simian virus 40); test: SV40 large T antigen inhibitors, biochemical (AID 1903); conditions: SV40 large T antigen ATPase/helicase inhibition assay; at 20 µM; stronger effect = higher value
Hit rate of the full screen: of about 310,000 compounds, about 1,200 (0.39%) were called active. Not all results are given here. Results with a measured potency or affinity are listed apart.
Below, each of the compounds is paired with its reported inhibition value.
# output: bare number, implied unit %

Check out these entries, answers already filled in.
>  <COMPOUND>
Oc1cc(Br)ccc1C=Nc1ccc(N2CCCCC2)cc1

>  <MEASUREMENT KIND>
inhibition

>  <EXPERIMENTAL VALUE>
10.6

$$$$
>  <COMPOUND>
COc1cc([N+](=O)[O-])ccc1NC(=O)CCCOc1cc(C)ccc1C

>  <MEASUREMENT KIND>
inhibition

>  <EXPERIMENTAL VALUE>
8.46

$$$$
>  <COMPOUND>
COc1ccc2oc(C(=O)OCC(=O)Nc3ccc(N4CCOCC4)cc3)c(C)c2c1

>  <MEASUREMENT KIND>
inhibition

>  <EXPERIMENTAL VALUE>
14

$$$$
>  <COMPOUND>
O=C(Nc1ccccc1O)c1ccc2c(c1)C(=O)N(N1C(=O)c3ccccc3C1=O)C2=O

>  <MEASUREMENT KIND>
inhibition

>  <EXPERIMENTAL VALUE>
5.64

$$$$
>  <COMPOUND>
Nc1sc(-c2ccccc2)cc1C(=O)O

>  <MEASUREMENT KIND>
inhibition

>  <EXPERIMENTAL VALUE>
4.81

$$$$

What value of inhibition has been recorded for this entry: CCCCC[n+]1cccc2c3ccccc3ccc21
5.51

What value of inhibition has been recorded for this entry: COC(=O)c1ccc(NC(=O)c2ccc(OC(C)=O)c(OC)c2)cc1
4.68

What value of inhibition has been recorded for this entry: O=S(=O)(c1ccc(NC(=S)N2CCN(c3ccccc3F)CC2)cc1)N1CCOCC1
11.6

What value of inhibition has been recorded for this entry: S=C(NCC1CCCO1)Nc1ccc(Cl)c(Cl)c1 (configuration not stated)
13.5

What value of inhibition has been recorded for this entry: COc1ccc(S(=O)(=O)N2CC=C(C(=O)Nc3ccc(NC(C)=O)cc3)CC2)cc1
8.65

What value of inhibition has been recorded for this entry: COc1ccccc1S(=O)(=O)CC(O)COc1ccc(F)cc1Cl (configuration not stated)
4.29

What value of inhibition has been recorded for this entry: O=C(CN1CCN(c2ccc(O)cc2)CC1)Nc1cc(S(=O)(=O)N2CCCCC2)ccc1Cl
28.7

What value of inhibition has been recorded for this entry: CCOc1cc(N2CCOCC2)c(OCC)cc1NS(=O)(=O)c1cc(NC(C)=O)ccc1OC
9.72

What value of inhibition has been recorded for this entry: O=S(=O)(Nc1nc2c(s1)CCCC2)c1ccc(Br)cc1
-1.56

What value of inhibition has been recorded for this entry: COC(=O)[C@H](CCSC)NS(=O)(=O)c1ccccc1Br
24.3

What value of inhibition has been recorded for this entry: O=C1NN(c2cccc(Br)c2)C(=O)/C1=C\c1ccc(N2CCOCC2)cc1
8.36

What value of inhibition has been recorded for this entry: [O-][n+]1c2ccccc2cc2ccccc21
3.6

What value of inhibition has been recorded for this entry: CN1CCN(CC(=O)Nc2cc(S(=O)(=O)N3CCOCC3)ccc2Cl)CC1
8.7

What value of inhibition has been recorded for this entry: CC(C)CCNC(=O)c1cccc(S(=O)(=O)N2CCc3ccccc32)c1
11.5

What value of inhibition has been recorded for this entry: O=C(COc1ccccc1)NCC(=O)NC1=NCCS1
3.88

What value of inhibition has been recorded for this entry: CCOc1ccc(N=Cc2c(O)cc(C)oc2=O)cc1
18.6

What value of inhibition has been recorded for this entry: CCOc1cc(N2CCOCC2)c(OCC)cc1NC(=O)C(C)C
5.9

What value of inhibition has been recorded for this entry: CCn1c(C)nc2cc(C(=O)N/N=C(\C)c3ccc(N4CCOCC4)cc3)ccc21
9.23

What value of inhibition has been recorded for this entry: COc1cc(C(=O)Nc2ccc(C(=O)O)cc2)ccc1OC(C)=O
17.2

What value of inhibition has been recorded for this entry: CCCOc1ccc(C(=O)Nn2c(C)nc3ccccc3c2=O)cc1
1.86

What value of inhibition has been recorded for this entry: Cc1ccc(S(=O)(=O)N2CCN(CC(=O)Nc3ccc(N4CCOCC4)cc3)CC2)cc1C
10.9

What value of inhibition has been recorded for this entry: CCOC(=O)c1cc(-c2ccccc2)sc1N
6.85

What value of inhibition has been recorded for this entry: Oc1c(Br)cc(Cl)cc1C=Nc1ccc(N2CCOCC2)cc1
17.2

What value of inhibition has been recorded for this entry: Cc1cc(O)ccc1C1(c2ccc(O)cc2C)OC(=O)c2ccccc21
4.57
